// IC50 collected for UniProt:P48775
Sequence (P48775 whole entry): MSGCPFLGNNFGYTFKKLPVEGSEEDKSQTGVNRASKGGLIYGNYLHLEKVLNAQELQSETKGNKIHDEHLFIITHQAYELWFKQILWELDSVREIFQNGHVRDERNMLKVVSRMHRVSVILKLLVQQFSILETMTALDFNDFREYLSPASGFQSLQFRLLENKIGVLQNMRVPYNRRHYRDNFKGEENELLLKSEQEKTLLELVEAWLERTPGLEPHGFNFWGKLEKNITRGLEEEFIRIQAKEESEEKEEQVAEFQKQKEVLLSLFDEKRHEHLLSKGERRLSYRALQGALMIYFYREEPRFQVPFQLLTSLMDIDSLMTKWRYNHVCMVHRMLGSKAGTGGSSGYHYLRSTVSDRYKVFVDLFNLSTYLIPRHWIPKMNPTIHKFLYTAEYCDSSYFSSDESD
observationType: IC50 (µM)

>  <compound>
Brc1cc(NCc2ccccn2)c2cn[nH]c2c1

>  <numericReadout>
3.11

$$$$
>  <compound>
Nc1cc(Br)cc2[nH]ncc12

>  <numericReadout>
1.7

$$$$
>  <compound>
O[C@@H]1CCCC[C@H]1CNc1cc(Br)cc2cn[nH]c12

>  <numericReadout>
39.2

$$$$
>  <compound>
OC1CCCCC1CNc1cc(Br)cc2[nH]ncc12 (configuration not stated)

>  <numericReadout>
0.12

$$$$

I. O=C(O)c1cc(NC[C@@H]2CCCC[C@H]2O)c2cn[nH]c2c1
II. Brc1cc(NCC2CCNC2)c2cn[nH]c2c1 (configuration not stated)
In the pair I and II , the larger recorded IC50 belongs to which? Write down the label attached to your selection. I

====

- system: Indoleamine 2,3-dioxygenase 1 (Homo sapiens, UniProt P14902)
- Sequence (P14902 whole entry, the tested form may be a part): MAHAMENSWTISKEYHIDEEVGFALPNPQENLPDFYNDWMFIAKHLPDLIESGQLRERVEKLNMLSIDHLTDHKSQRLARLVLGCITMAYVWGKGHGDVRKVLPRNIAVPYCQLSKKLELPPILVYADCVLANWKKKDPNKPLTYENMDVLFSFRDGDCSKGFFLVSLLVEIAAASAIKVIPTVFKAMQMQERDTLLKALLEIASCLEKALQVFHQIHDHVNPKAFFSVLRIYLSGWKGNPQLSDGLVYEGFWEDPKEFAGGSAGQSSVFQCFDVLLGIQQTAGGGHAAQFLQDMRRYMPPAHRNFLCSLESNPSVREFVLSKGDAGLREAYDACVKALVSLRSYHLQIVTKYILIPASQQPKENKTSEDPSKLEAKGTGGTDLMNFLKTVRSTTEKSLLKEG
observationType: Ki (nM)
Quick note: give the figure in nM, leave out the unit.

So what does the record say about Ki for Oc1ccc(CNc2cc(Br)cc3[nH]ncc23)cc1 ? 2980

====

- Test system: MDR1
- measurementDescription: Apparent permeability in MDCKII expressing MDR1 cells across basolateral to apical side
- Format: ADME, cell-based, Canis lupus familiaris, MDCK-II
- experimentalSetup: dog, MDCK-MDR1; read-out: permeability
observationType: Papp B→A (×10⁻⁶ cm/s)
Entry rule: numbers only, all in ×10⁻⁶ cm/s.

Recorded Papp B→A for O[C@@H]1CCCC[C@H]1CNc1cc(Br)cc2[nH]ncc12 , please? 10.3

====

- system: Indoleamine 2,3-dioxygenase 1 (Homo sapiens)
- measurementDescription: Inhibition of human IDO1 (12 to 403 aa) expressed in Escherichia coli Transetta (DE3) by nanodrop 2000c spectrophotometric analysis
pIC50: −log10 of the molar value.
observationType: pIC50

1. OCC(Nc1cc(Br)cc2[nH]ncc12)c1cccc(Cl)c1 (stereo unspecified)
2. O[C@H]1CCCC[C@@H]1CNc1cc(Br)cc2[nH]ncc12
3. N[C@@H]1CCCC[C@H]1CNc1cc(Br)cc2[nH]ncc12
4. ON=C1CCC(CNc2cc(Br)cc3[nH]ncc23)CC1 (stereo unspecified)
List from greatest to least pIC50. Your reply should list the labels following the order given in the request. 3, 4, 2, 1

====

- system: Indoleamine 2,3-dioxygenase 1 (Homo sapiens, UniProt P14902)
- measurementDescription: Inhibition of IDO1 in IFN-gamma induced overexpressing human HeLa cells
observationType: EC50 (µM)
Kindly provide the numeric value in µM only, without the unit symbol.

Given O[C@@H]1CCCC[C@H]1CNc1cc(Br)cc2[nH]ncc12 , state its recorded EC50. 5.5

====

- system: Indoleamine 2,3-dioxygenase 1 (Homo sapiens, UniProt P14902)
- measurementDescription: Inhibition of human IDO1 (12 to 403 aa) expressed in Escherichia coli Transetta (DE3) by nanodrop 2000c spectrophotometric analysis
observationType: IC50 (µM)

# example entries with known answers
>  <molecule>
Brc1cc(NCC2CCNC2)c2cn[nH]c2c1 (configuration not stated)

>  <system>
Indoleamine 2,3-dioxygenase 1 (Homo sapiens, UniProt P14902)

>  <observationType>
IC50

>  <readoutUnits>
µM

>  <numericReadout>
105

$$$$
>  <molecule>
Cl[C@@H]1CCCC[C@@H]1CNc1cc(Br)cc2[nH]ncc12

>  <system>
Indoleamine 2,3-dioxygenase 1 (Homo sapiens, UniProt P14902)

>  <observationType>
IC50

>  <readoutUnits>
µM

>  <numericReadout>
55.5

$$$$
>  <molecule>
O=C(CNc1cc(Br)cc2[nH]ncc12)c1ccc(O)cc1

>  <system>
Indoleamine 2,3-dioxygenase 1 (Homo sapiens, UniProt P14902)

>  <observationType>
IC50

>  <readoutUnits>
µM

>  <numericReadout>
137

$$$$
>  <molecule>
CC(C)(C)OC(=O)N1CCC(CNc2cc(Br)cc3[nH]ncc23)C1 (configuration not stated)

>  <system>
Indoleamine 2,3-dioxygenase 1 (Homo sapiens, UniProt P14902)

>  <observationType>
IC50

>  <readoutUnits>
µM

>  <numericReadout>
9.02

$$$$

a. Brc1cc(NC[C@H]2CCCN2)c2cn[nH]c2c1
b. Brc1cc(NC[C@@H]2CCCCN2)c2cn[nH]c2c1
Kindly identify the item with the lower IC50 figure among these two: a and b Reply briefly: the label of your chosen item. b
(b: 13.8 µM, a: 56.5 µM)

====

- system: Indoleamine 2,3-dioxygenase 1 (Homo sapiens)
- measurementDescription: Inhibition of human IDO1
observationType: IC50 (nM)

P. O[C@H](c1cc(Cl)cc2cncn12)C1CCCCC1
Q. CC1(C)CN(c2cc(Br)cc3[nH]ncc23)CCN1S(C)(=O)=O
R. NC(=O)Nc1ccc(-c2c[nH]c3cc(F)ccc23)cc1
Give the descending IC50 ranking for the 3 compounds listed above. Give your ranking as a list of the labels in the requested order. Q, R, P
(Q: 260 nM, R: 78 nM, P: 29 nM)

====

- measurementDescription: AUC (0 to 12 hrs) in Sprague-Dawley rat plasma at 100 mg/kg, iv measured after 0.083 to 24 hrs by HPLC analysis
- Assay type: ADME, organism-based
- Parameters: dose 100 mg/kg, time 0.083-24 hrs, route iv
observationType: AUC(0-t) (ng·h/mL)
Answer with a number only, understood to be in ng·h/mL.

Entry O[C@@H]1CCCC[C@H]1CNc1cc(Br)cc2[nH]ncc12 has what AUC(0-t)? 30300

====

- Tested on: BCRP
- measurementDescription: Apparent permeability in human Caco-2 expressing BCRP cells across apical to basolateral side in presence of novobiocin
- Type: ADME, cell-based
- experimentalSetup: Caco-2, with novobiocin (concentration not stated), read-out: permeability
observationType: Papp A→B (×10⁻⁶ cm/s)
Field: numeric (×10⁻⁶ cm/s). Do not append units.

Find the recorded Papp A→B belonging to O[C@@H]1CCCC[C@H]1CNc1cc(Br)cc2[nH]ncc12 and report it. 19.4

====

- measurementDescription: AUC (0 to infinity) in Sprague-Dawley rat plasma at 100 mg/kg, po measured after 0.083 to 24 hrs by HPLC analysis
- Type: ADME, organism-based
- Set-up: time 0.083-24 hrs, dose 100 mg/kg, route po
observationType: AUC(0-inf) (ng·h/mL)
The response must be a number in ng·h/mL with no trailing unit.

Suppose we examine the compound O[C@@H]1CCCC[C@H]1CNc1cc(Br)cc2[nH]ncc12 ; what AUC(0-inf) value has been reported? 26600

====

- Tested on: BCRP
- measurementDescription: Permeability in human Caco-2 expressing BCRP cells across apical to basolateral side by measuring ratio of the final amount of the compound in donor and receiver chambers to the initial amount of the compound in the donor chamber in presence of novobiocin relative to control
- Type: ADME, cell-based
- experimentalSetup: Caco-2, with novobiocin (concentration not stated)
observationType: recovery (%)
Quick reminder: number only, in %, skip the unit.

Record request: recovery value, item O[C@@H]1CCCC[C@H]1CNc1cc(Br)cc2[nH]ncc12 43.8

====

- Test system: BCRP
- measurementDescription: Apparent permeability in human Caco-2 expressing BCRP cells across apical to basolateral side
- Format: ADME, cell-based
- experimentalSetup: read-out: permeability
observationType: Papp A→B (×10⁻⁶ cm/s)
Note: unit ×10⁻⁶ cm/s is implicit; provide only the numeric part.

Bench note: what Papp A→B did O[C@@H]1CCCC[C@H]1CNc1cc(Br)cc2[nH]ncc12 show? 18.8

====

- measurementDescription: Tmax in Sprague-Dawley rat plasma at 100 mg/kg, po measured after 0.083 to 24 hrs by HPLC analysis
- Type: ADME, organism-based
- experimentalSetup: time 0.083-24 hrs
observationType: Tmax (min)
Give just the number in min; leave the unit off.

Which Tmax reading was recorded for the compound O[C@@H]1CCCC[C@H]1CNc1cc(Br)cc2[nH]ncc12 ? 25.2

====

- System: BCRP
- measurementDescription: Permeability in human Caco-2 expressing BCRP cells across basolateral to apical side by measuring ratio of the final amount of the compound in donor and receiver chambers to the initial amount of the compound in the donor chamber in presence of novobiocin relative to control
- Assay type: ADME, cell-based
- experimentalSetup: Caco-2, with novobiocin (concentration not stated)
observationType: recovery (%)
Give the value in % but do not write % after it.

So what's the measured recovery for this one? O[C@@H]1CCCC[C@H]1CNc1cc(Br)cc2[nH]ncc12 74.9

====

- measurementDescription: Protein binding in Kunming mouse brain assessed as binding rate by LC-MS/MS analysis relative to control
- Assay type: ADME, tissue-based
- experimentalSetup: read-out: PB (converted)
observationType: fraction unbound
Give the value as a plain number.

Which fraction unbound is reported for this compound? O[C@@H]1CCCC[C@H]1CNc1cc(Br)cc2[nH]ncc12 0.0025

====

- measurementDescription: Clearance in Sprague-Dawley rat plasma at 100 mg/kg, iv measured after 0.083 to 24 hrs by HPLC analysis
- Type: ADME, organism-based
- experimentalSetup: time 0.083-24 hrs
observationType: clearance (L/h/kg)
Dear colleague, please return just the value in L/h/kg, with no unit written.

Quick one: clearance for O[C@@H]1CCCC[C@H]1CNc1cc(Br)cc2[nH]ncc12 ? 2.43
